Catalogue of MIC values
- System: Escherichia coli
- method: Antibacterial activity against Escherichia coli ATCC 35150 clinical isolates after 18 to 20 hrs in aerobic condition by CLSI-based broth microdilution assay
- Type: functional

| smiles | property.name | reported |
| --- | --- | --- |
| CCCCCC#Cc1ccc(-n2ncc(/C(C)=N/NC3=NCCN3)c2C)cc1 | MIC | > 128 µg/mL |
| C/C(=N\NC(=N)N)c1cnn(-c2ccc(C#CC3CCCCC3)cc2)c1C | MIC | 4 µg/mL |
| C/C(=N\NC1=NCCN1)c1cnn(-c2ccc(C#CC3CCCC3)cc2)c1C | MIC | 16 µg/mL |
| C/C(=N\NC(=N)N)c1cnn(-c2ccc(C#CC3(O)CCCCC3)cc2)c1C | MIC | 16 µg/mL |
| C/C(=N\NC(=N)N)c1cnn(-c2ccc(C#CC3CCCC3)cc2)c1C | MIC | 4 µg/mL |

Query: Param item = `C/C(=N\NC(=N)N)c1cnn(-c2ccc(C#Cc3ccccc3)cc2)c1C` ; retrieve measured MIC.
Response: 8 µg/mL

Query: Param item = `CCCCCC#Cc1ccc(-n2ncc(/C(C)=N/NC(=N)N)c2C)cc1` ; retrieve measured MIC.
Response: 8 µg/mL

Query: Param item = `CCCC#Cc1ccc(-n2ncc(/C(C)=N/NC(=N)N)c2C)cc1` ; retrieve measured MIC.
Response: 8 µg/mL

* * *

- Tested on: Enterococcus faecalis
- method: Antibacterial activity against vancomycin-resistant Enterococcus faecalis ATCC 51299 clinical isolates after 18 to 20 hrs in aerobic condition by CLSI-based broth microdilution assay
- Type: functional
Flag rule - MIC less than 2 µg/mL flags Yes; the remaining entries get No.

| compound | target.or.system | class.name |
| --- | --- | --- |
| CN[C@H](CC(C)C)C(=O)N[C@H]1C(=O)N[C@@H](CC(N)=O)C(=O)N[C@H]2C(=O)N[C@H]3C(=O)N[C@H](C(=O)N[C@H](C(=O)O)c4cc(O)cc(O)c4-c4cc3ccc4O)[C@H](O)c3ccc(c(Cl)c3)Oc3cc2cc(c3O[C@@H]2O[C@H](CO)[C@@H](O)[C@H](O)[C@H]2O[C@H]2C[C@](C)(N)[C@H](O)[C@H](C)O2)Oc2ccc(cc2Cl)[C@H]1O [VANCOMYCIN] | Enterococcus faecalis | No |
| CCCC#Cc1ccc(-n2ncc(/C(C)=N/NC(=N)N)c2C)cc1 | Enterococcus faecalis | No |
| CCCCCC#Cc1ccc(-n2ncc(/C(C)=N/NC3=NCCN3)c2C)cc1 | Enterococcus faecalis | No |
| C/C(=N\NC(=N)N)c1cnn(-c2ccc(C#Cc3ccccc3)cc2)c1C | Enterococcus faecalis | Yes |
| C/C(=N\NC(=N)N)c1cnn(-c2ccc(C#CC3CCCC3)cc2)c1C | Enterococcus faecalis | Yes |

Now consider a different compound.
Query: Quick check: MIC of `C/C(=N\NC1=NCCN1)c1cnn(-c2ccc(C#CC3CCCC3)cc2)c1C` under 2 µg/mL?
Response: No

* * *

- System: Staphylococcus aureus
- method: Antibacterial activity against Methicillin-sensitive Staphylococcus aureus ATCC 6538 clinical isolates after 18 to 20 hrs in aerobic condition by CLSI protocol based broth microdilution assay
- Type: functional
property.name: MIC (µg/mL)
Quick note: give the figure in µg/mL, leave out the unit.

Examples from the recorded data:
| smiles | MIC (µg/mL) |
| --- | --- |
| C/C(=N\NC(=N)N)c1cnn(-c2ccc(C#CC3CCCCC3)cc2)c1C | 2 |
| C/C(=N\NC1=NCCN1)c1cnn(-c2ccc(C#CC3CCCC3)cc2)c1C | 1 |
| C/C(=N\NC(=N)N)c1cnn(-c2ccc(C#CC3CCCC3)cc2)c1C | 0.5 |
| C/C(=N\NC(=N)N)c1cnn(-c2ccc(C#Cc3ccccc3)cc2)c1C | 1 |
| CCCCCC#Cc1ccc(-n2ncc(/C(C)=N/NC3=NCCN3)c2C)cc1 | 2 |
| CCCC#Cc1ccc(-n2ncc(/C(C)=N/NC(=N)N)c2C)cc1 | 2 |
| CCCCCC#Cc1ccc(-n2ncc(/C(C)=N/NC(=N)N)c2C)cc1 | 2 |
| C/C(=N\NC(=N)N)c1cnn(-c2ccc(C#CC3(O)CCCCC3)cc2)c1C | 2 |

// switching to the query compound
Query: Param item = `CC(=O)NC[C@H]1CN(c2ccc(N3CCOCC3)c(F)c2)C(=O)O1` ; retrieve measured MIC.
Response: 1

* * *

- Test system: Shigella flexneri
- method: Antibacterial activity against Shigella flexneri ATCC 9199 clinical isolates after 18 to 20 hrs in aerobic condition by CLSI-based broth microdilution assay
- Format: functional
Catalogue of MIC values
Quick note: give the figure in µg/mL, leave out the unit.

Examples from the recorded data:
| smiles | property.name | reported |
| --- | --- | --- |
| C/C(=N\NC(=N)N)c1cnn(-c2ccc(C#CC3(O)CCCCC3)cc2)c1C | MIC | 16 |
| C/C(=N\NC(=N)N)c1cnn(-c2ccc(C#Cc3ccccc3)cc2)c1C | MIC | 8 |
| CCCCCC#Cc1ccc(-n2ncc(/C(C)=N/NC(=N)N)c2C)cc1 | MIC | 8 |

Query: Param item = `CCCC#Cc1ccc(-n2ncc(/C(C)=N/NC(=N)N)c2C)cc1` ; retrieve measured MIC.
Response: 16

Query: Param item = `C/C(=N\NC(=N)N)c1cnn(-c2ccc(C#CC3CCCCC3)cc2)c1C` ; retrieve measured MIC.
Response: 8

Query: Param item = `C/C(=N\NC1=NCCN1)c1cnn(-c2ccc(C#CC3CCCC3)cc2)c1C` ; retrieve measured MIC.
Response: 32

Query: Param item = `C/C(=N\NC(=N)N)c1cnn(-c2ccc(C#CC3CCCC3)cc2)c1C` ; retrieve measured MIC.
Response: 8

* * *

- System: Enterococcus faecium
- method: Antibacterial activity against vancomycin-resistant Enterococcus faecium ATCC 700221 clinical isolates after 18 to 20 hrs in aerobic condition by CLSI-based broth microdilution assay
- Type: functional
Catalogue of MIC values
Quick note: give the figure in µg/mL, leave out the unit.

Query: Param item = `CCCCCC#Cc1ccc(-n2ncc(/C(C)=N/NC3=NCCN3)c2C)cc1` ; retrieve measured MIC.
Response: 2

Query: Param item = `C/C(=N\NC(=N)N)c1cnn(-c2ccc(C#CC3(O)CCCCC3)cc2)c1C` ; retrieve measured MIC.
Response: 2

Query: Param item = `C/C(=N\NC(=N)N)c1cnn(-c2ccc(C#CC3CCCC3)cc2)c1C` ; retrieve measured MIC.
Response: 1

* * *

- Tested on: Staphylococcus aureus
- method: Antibacterial activity against Methicillin-resistant Staphylococcus aureus USA700-NRS386 clinical isolates after 18 to 20 hrs in aerobic condition by CLSI protocol based broth microdilution assay
- Type: functional
Catalogue of MIC values

| smiles | target.or.system | reported |
| --- | --- | --- |
| CCCCCC#Cc1ccc(-n2ncc(/C(C)=N/NC3=NCCN3)c2C)cc1 | Staphylococcus aureus | 2 µg/mL |
| C/C(=N\NC1=NCCN1)c1cnn(-c2ccc(C#CC3CCCC3)cc2)c1C | Staphylococcus aureus | 4 µg/mL |

Query: Param item = `C/C(=N\NC(=N)N)c1cnn(-c2ccc(C#CC3(O)CCCCC3)cc2)c1C` ; retrieve measured MIC.
Response: 2 µg/mL

Query: Param item = `CCCC#Cc1ccc(-n2ncc(/C(C)=N/NC(=N)N)c2C)cc1` ; retrieve measured MIC.
Response: 4 µg/mL

* * *

- Test system: Escherichia coli
- method: Antimicrobial activity against Escherichia coli JW55031 harboring deltatolC mutant after 18 to 20 hrs in aerobic condition by CLSI protocol based broth microdilution assay
- Assay type: functional
property.name: MIC

Examples from the recorded data:
| smiles | reported |
| --- | --- |
| CCCCCC#Cc1ccc(-n2ncc(/C(C)=N/NC3=NCCN3)c2C)cc1 | 2 µg/mL |
| CCCCC#Cc1ccc(-n2ncc(/C(C)=N/NC3=NCCN3)c2C)cc1 | 4 µg/mL |
| C/C(=N\NC1=NCCN1)c1cnn(-c2ccc(C#Cc3ccccc3)cc2)c1C | 4 µg/mL |
| C/C(=N\NC1=NCCN1)c1cnn(-c2ccc(C#CC3CCCCC3)cc2)c1C | 4 µg/mL |

Query: Param item = `C/C(=N\NC1=NCCN1)c1cnn(-c2ccc(C#CC3(O)CCCCC3)cc2)c1C` ; retrieve measured MIC.
Response: 32 µg/mL

* * *

- Tested on: Escherichia coli
- method: Antimicrobial activity against Escherichia coli JW55031 harboring deltatolC mutant after 18 to 20 hrs in aerobic condition by CLSI protocol based broth microdilution assay
- Type: functional
property.name: MIC

Examples from the recorded data:
| smiles | property.name | reported |
| --- | --- | --- |
| CCCCCC#Cc1ccc(-n2ncc(/C(C)=N/NC(=N)N)c2C)cc1 | MIC | 4 µg/mL |
| CCCC#Cc1ccc(-n2ncc(/C(C)=N/NC(=N)N)c2C)cc1 | MIC | 4 µg/mL |
| C/C(=N\NC(=N)N)c1cnn(-c2ccc(C#CC3CCCCC3)cc2)c1C | MIC | 2 µg/mL |
| CCCCC#Cc1ccc(-n2ncc(/C(C)=N/NC(=N)N)c2C)cc1 | MIC | 4 µg/mL |
| C/C(=N\NC(=N)N)c1cnn(-c2ccc(C#CC3CCCC3)cc2)c1C | MIC | 2 µg/mL |

Query: Param item = `CCN(CC)CC#Cc1ccc(-n2ncc(/C(C)=N/NC3=NCCN3)c2C)cc1` ; retrieve measured MIC.
Response: > 128 µg/mL

Query: Param item = `C/C(=N\NC(=N)N)c1cnn(-c2ccc(C#CC3(O)CCCCC3)cc2)c1C` ; retrieve measured MIC.
Response: 4 µg/mL

Query: Param item = `C/C(=N\NC(=N)N)c1cnn(-c2ccc(C#CC(C)(C)C)cc2)c1C` ; retrieve measured MIC.
Response: 8 µg/mL
